Ref: ChEMBL document CHEMBL3046519

test system: Bacillus subtilis; test: Antibacterial activity against Bacillus subtilis MTCC 121 at 4 mg/ml after 24 hr by agar well diffusion method; type: functional; details: MTCC 121, 24 h, read-out: DIZ
Quantity: zone of inhibition at 4000 µg/mL (mm)

Smiles Str	Reported Value
Cc1ccc(-c2nn(-c3ccc(S(N)(=O)=O)cc3)cc2/C=N/Nc2nc(-c3ccc(Cl)cc3)cs2)cc1	15.3
Cc1ccc(-c2csc(N/N=C/c3cn(-c4ccc(S(N)(=O)=O)cc4)nc3-c3ccc(Cl)cc3)n2)cc1	14.6
NS(=O)(=O)c1ccc(-n2cc(/C=N/Nc3nc(-c4ccccc4)cs3)c(-c3ccc(F)cc3)n2)cc1	16.6
NC(=S)N/N=C/c1cn(-c2ccc(S(N)(=O)=O)cc2)nc1-c1ccc(F)cc1	15.3
